Reference source: patent US10760052B2

Molecular target: mu opiate receptor (MOR) (Rattus norvegicus)
Construct: from tissue; host or cells: striatum (membrane preparation)
Sequence (P33535 whole entry): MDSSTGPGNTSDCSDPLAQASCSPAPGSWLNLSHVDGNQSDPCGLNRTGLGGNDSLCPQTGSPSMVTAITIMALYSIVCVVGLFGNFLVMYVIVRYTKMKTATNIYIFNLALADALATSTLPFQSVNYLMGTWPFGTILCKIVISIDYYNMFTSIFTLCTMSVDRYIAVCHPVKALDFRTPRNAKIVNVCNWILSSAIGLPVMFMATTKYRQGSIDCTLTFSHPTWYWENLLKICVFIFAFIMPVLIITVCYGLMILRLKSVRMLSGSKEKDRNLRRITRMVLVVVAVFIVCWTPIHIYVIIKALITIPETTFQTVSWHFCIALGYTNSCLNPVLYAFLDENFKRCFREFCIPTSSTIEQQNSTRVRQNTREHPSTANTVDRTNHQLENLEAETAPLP
Format: biochemical
Form field: [35S]GTPγS binding, FLNA-Binding Compound as Agonist at 0.1 μM (one value per entry).
Just the number plus its unit, please.

Known results for molecules:
{"Molecule": "CS(=O)(=O)c1ccc(S(=O)(=O)N2CCOC23CCNCC3)cc1 [Compound C0116M]", "Obs value": "258.4%"}
{"Molecule": "O=C1CNC2(CCNCC2)N1Cc1ccccc1 [Compound C0114M]", "Obs value": "114.0%"}
{"Molecule": "O=C1CN(Cc2ccccc2)C2(CCNCC2)N1 [Compound C0115M]", "Obs value": "177.2%"}

The record that follows has no [35S]GTPγS binding, FLNA-Binding Compound as Agonist at 0.1 μM shown yet.
For C[C@@H](NC(=O)[C@@H](N)Cc1ccc(O)cc1)C(=O)NCC(=O)N(C)[C@@H](Cc1ccccc1)C(=O)NCCO [DAMGO, reference compound] , what is its reported [35S]GTPγS binding, FLNA-Binding Compound as Agonist at 0.1 μM?
168.5%
